Entries and their IC50 values follow.
- system-tested: T1, human CCR8 (human, UniProt P51685 1-355)
- T1 construct: whole, on cells; the cell line is named under assay; also called hCCR8
- T1 sequence (P51685 whole entry): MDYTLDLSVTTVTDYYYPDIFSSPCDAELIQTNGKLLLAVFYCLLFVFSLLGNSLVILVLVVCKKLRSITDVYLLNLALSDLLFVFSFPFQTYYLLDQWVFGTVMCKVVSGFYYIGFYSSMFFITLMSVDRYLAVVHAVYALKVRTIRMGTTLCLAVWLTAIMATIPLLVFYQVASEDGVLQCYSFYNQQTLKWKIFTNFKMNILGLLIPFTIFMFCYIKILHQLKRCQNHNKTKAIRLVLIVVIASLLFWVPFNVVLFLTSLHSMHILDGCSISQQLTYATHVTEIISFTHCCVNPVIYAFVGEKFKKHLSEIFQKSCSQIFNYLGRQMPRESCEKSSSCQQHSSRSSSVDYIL
- measurement-notes: flow cytometry, competition with 10 nM AF647-human CCL1 on 293F-hCCR8 cells
Just the number in µg/mL, nothing appended.

Look over these answered cases.
binder="27B9-1G3_hzH1L2_hIgG1 (antibody, V domains shown, Humanized, hIgG1/K; hzVH01 + hzVL02) VH: QVQLVQSGAEVKKPGSSVKVSCKASGGTFSGYNMNWVRQAPGQGLEWMGNIDPYYGGTNYNQKFKGRVTITADKSTSTAYMELSSLRSEDTAVYYCARETWFITTGVIKKGFYFDYWGQGTTVTVSS VL: EIVLTQSPATLSLSPGERATLACSASSIISSNYLHWYQQKPGQAPRLLIYRTSSLASGIPARFSGSGSGTDYTLTISSLEPEDFAVYYCQQGSSIPRTFGGGTKVEIKR" quantity_measured=IC50 obs_value=0.291
binder="27B9-1G3_hzH3L1_hIgG1 (antibody, V domains shown, Humanized, hIgG1/K; hzVH03 + hzVL01) VH: QVQLVQSGAEVKKPGSSVKVSCKASGGTFSGYNMNWVRQAPGQGLEWMGNIDPYYGGTNYNQKFKGKATITADKSTSTAYMELSSLRSEDTAVYYCARETWFITTGVIKKGFYFDYWGQGTTVTVSS VL: EIVLTQSPATLSLSPGERATLSCSASSIISSNYLHWYQQKPGQAPRLLIYRTSSLASGIPARFSGSGSGTDFTLTISSLEPEDFAVYYCQQGSSIPRTFGGGTKVEIKR" quantity_measured=IC50 obs_value=0.121

Now for a further binder.
Name the recorded IC50 of the item 27B9-1G3_hzH2L3_hIgG1 (antibody, V domains shown, Humanized, hIgG1/K; hzVH02 + hzVL03) VH: QVQLVQSGAEVKKPGSSVKVSCKASGYSFTGYNMNWVRQAPGQGLEWMGNIDPYYGGTNYNQKFKGRVTITADKSTSTAYMELSSLRSEDTAVYYCARETWFITTGVIKKGFYFDYWGQGTTVTVSS VL: EIVLTQSPATLSLSPGERATLACSASSIISSNYLHWYQQKPGQSPRLLIYRTSSLASGVPARFSGSGSGTSYTLTISSLEPEDFAVYYCQQGSSIPRTFGGGTKVEIKR in your answer.
0.192
